# System: P. aeruginosa strain WC-453
# Test description: Time-kill assay in HEPES or CAA with 25% human serum (Tables 7, 8)
# Type: cell-based, Pseudomonas aeruginosa
# Conditions: CAA + 25% human serum; lysin 10 μg/ml; 1 hr; WC-453
Quantity measured: CAA/HuS (Log10 CFU/mL), 1 hr
State just the number; it will be interpreted in Log10 CFU/mL.

Sample answers from the record:
GN370: lysin-AMP construct: MIDR, FIRL and NPTH moieties N-terminal to GN202 lysin (SEQ ID NO: 44) (protein) MIDRFIRLNPTHGPRRPRRPGRRAPVRTSQRGIDLIKSFEGLRLSAYQDSVGVWTIGYGTTRGVTRYMTITVEQAERMLSNDIQRFEPELDRLAKVPLNQNQWDALMSFVYNLGAANLASSTLLDLLNKGDYQGAADQFPHWVNAGGKRLDGLVKRRAAERALFLEPLS = 4.0
GN357: lysin-AMP construct: TAGGTAGG linker and RR12Whydro C-terminal to GN316 lysin (SEQ ID NO: 38) (protein) MAILKIGSKGLEVKNLQTSLNKIGFNLVADGIFGKATDNAVRAVQAGAGLVVDGIAGPKTMYAIRNAGESHQDHLTEADLIDAARELSVDLASIKAVNQVESRGTGFTKSGKIKTLFERHIMYKKLNAKFGQAKANALAQLYPTLVNAKAGGYTGGDAELERLHGAIAIDKDCAYESASYGLFQIMGFNCVICGYDNAEEMFNDFLTGERAQLMAFVKFIKADANLWKALKDKNWAEFARRYNGPAYAQNQYDTKLAAAYKSFSTAGGTAGGRRLIRLWLRLLR = 5.0

Give me measured CAA/HuS (Log10 CFU/mL), 1 hr, please, for this molecule: GN316: lysin obtained from Klebsiella phage 0507-KN2-1 (SEQ ID NO: 22) (protein, (1)..(264) GN316 lysin) MAILKIGSKGLEVKNLQTSLNKIGFNLVADGIFGKATDNAVRAVQAGAGLVVDGIAGPKTMYAIRNAGESHQDHLTEADLIDAARELSVDLASIKAVNQVESRGTGFTKSGKIKTLFERHIMYKKLNAKFGQAKANALAQLYPTLVNAKAGGYTGGDAELERLHGAIAIDKDCAYESASYGLFQIMGFNCVICGYDNAEEMFNDFLTGERAQLMAFVKFIKADANLWKALKDKNWAEFARRYNGPAYAQNQYDTKLAAAYKSFS 5.1

Give me measured CAA/HuS (Log10 CFU/mL), 1 hr, please, for this molecule: GN329: lysin, SEQ ID NO: 26 (protein, Pseudomonas phage KPP10) MITDREYQQAAEMLGVDVPAIKAVTKVEAPVGGFQPTGEPTILYERHQMYRQLQAKGLPTEGHPPDLVNKVAGGYGKYSEQHAKLARAVKIDRDSALESCSWGMFQIMGYHWKLMGYPTLQAFVNAMYASEGAQMDAFCRFIKAQPTTHAALKAHDWAKFARLYNGPGYAKNKYDVKLEKAYAEASG 4.4

Give me measured CAA/HuS (Log10 CFU/mL), 1 hr, please, for this molecule: GN76: lysin obtained from Acinetobacter phage vB_AbaP_CEB1 (SEQ ID NO: 203) (protein, Acinetobacter phage vB_AbaP_CEB1) MILTKDGFGIIRNELFGGKLDQTQVDAINFIVEKATESGLSYPEAAYLLATIYHETGLPSGYRTMQPIKEAGSDNYLRSKKYYPYIGYGYVQLTWKENYGRIGKLIGIDLIKNPEKALEPLIAIQIAIKGMLNGWFTGVGFRRKRPVSKYNKQQYIAARNIINGKDKAELIAKYAIIFERALRSL 5.7
